Tested on: HeLa MCTS
Assay: (Photo-)cytotoxicity on 3D multicellular tumor spheroids (ATP, CellTiter-Glo 3D)
Assay type: cell-based, human
Details: dark vs 1-Photon irradiation (500 nm, 10 J/cm^2)
recorded.endpoint: PI (1-Photon)

COc1ccc(C=Cc2ccnc(-c3cc(C=Cc4ccc(OC)cc4)ccn3)c2)cc1.F[P-](F)(F)(F)(F)F.F[P-](F)(F)(F)(F)F.[Ru+2].c1ccc(-c2ccnc3c2ccc2c(-c4ccccc4)ccnc23)cc1.c1ccc(-c2ccnc3c2ccc2c(-c4ccccc4)ccnc23)cc1 7.7
CN(C)c1ccc(/C=C/c2ccnc(-c3cc(/C=C/c4ccc(N(C)C)cc4)ccn3)c2)cc1.F[P-](F)(F)(F)(F)F.F[P-](F)(F)(F)(F)F.[Ru+2].c1cnc2c(c1)ccc1cccnc12.c1cnc2c(c1)ccc1cccnc12 >9.2
CN(C)c1ccc(/C=C/c2ccnc(-c3cc(/C=C/c4ccc(N(C)C)cc4)ccn3)c2)cc1.CN(C)c1ccc(/C=C/c2ccnc(-c3cc(/C=C/c4ccc(N(C)C)cc4)ccn3)c2)cc1.F[P-](F)(F)(F)(F)F.F[P-](F)(F)(F)(F)F.[Ru+2].c1ccc(-c2ccccn2)nc1 >1.3
COc1ccc(/C=C/c2ccnc(-c3cc(/C=C/c4ccc(OC)cc4)ccn3)c2)cc1.F[P-](F)(F)(F)(F)F.F[P-](F)(F)(F)(F)F.[Ru+2].c1cnc2c(c1)ccc1cccnc12.c1cnc2c(c1)ccc1cccnc12 >40.0
COc1ccc(/C=C/c2ccnc(-c3cc(/C=C/c4ccc(OC)cc4)ccn3)c2)cc1.COc1ccc(/C=C/c2ccnc(-c3cc(/C=C/c4ccc(OC)cc4)ccn3)c2)cc1.F[P-](F)(F)(F)(F)F.F[P-](F)(F)(F)(F)F.[Ru+2].c1ccc(-c2ccccn2)nc1 >5.2
CN(C)c1ccc(/C=C/c2ccnc(-c3cc(/C=C/c4ccc(N(C)C)cc4)ccn3)c2)cc1.F[P-](F)(F)(F)(F)F.F[P-](F)(F)(F)(F)F.[Ru+2].c1ccc(-c2ccnc3c2ccc2c(-c4ccccc4)ccnc23)cc1.c1ccc(-c2ccnc3c2ccc2c(-c4ccccc4)ccnc23)cc1 3.1
CN(C)c1ccc(/C=C/c2ccnc(-c3cc(/C=C/c4ccc(N(C)C)cc4)ccn3)c2)cc1.F[P-](F)(F)(F)(F)F.F[P-](F)(F)(F)(F)F.[Ru+2].c1ccc(-c2ccccn2)nc1.c1ccc(-c2ccccn2)nc1 >8.9
